This section lists pKi readings for Gamma-aminobutyric acid receptor subunit alpha-2 (Homo sapiens, UniProt P47869).
Note: pKi values are expressed as the negative base-10 logarithm of concentration in M.

// query Reported pKi for CC(C)(C)OC(=O)c1ncn2c1C1CCCN1C(=O)c1c(Br)cccc1-2 (stereo unspecified) : what is it?
// result 8.92

// query Reported pKi for Cc1nnc2ccc(-c3cccc(C(F)(F)F)c3)nn12 : what is it?
// result 5.54

// query Reported pKi for CCOC(=O)c1ncn2c1CN(C)C(=O)c1cc(N=[N+]=[N-])ccc1-2 [RO-154513] : what is it?
// result 7.98

// query Reported pKi for COCc1c(C(=O)OC(C)C)ncc2[nH]c3ccc(OCc4ccccc4)cc3c12 : what is it?
// result 8.36

// query Reported pKi for CC(C)c1nc(-c2ncn3c2CN(C)C(=O)c2c(Cl)cccc2-3)no1 [FG 8205] : what is it?
// result 8.43

// query Reported pKi for COC(=O)c1cc2c(cn1)[nH]c1ccccc12 : what is it?
// result 8.19

----------
This section lists Ki readings for Gamma-aminobutyric acid receptor subunit alpha-5 (Homo sapiens, UniProt P31644).
Answer format: numeric, nM implied, no suffix.

// query Reported Ki for Cc1nnc2ccc(-c3cccc(C(F)(F)F)c3)nn12 : what is it?
// result 1150

// query Reported Ki for CC(C)(C)OC(=O)c1ncn2c1C1CCCN1C(=O)c1c(Br)cccc1-2 (configuration not stated) : what is it?
// result 2.4

// query Reported Ki for COC(=O)c1cc2c(cn1)[nH]c1ccccc12 : what is it?
// result 76.4

// query Reported Ki for CCOC(=O)c1ncn2c1CN(C)C(=O)c1cc(N=[N+]=[N-])ccc1-2 : what is it?
// result 0.7

// query Reported Ki for COCc1c(C(=O)OC(C)C)ncc2[nH]c3ccc(OCc4ccccc4)cc3c12 : what is it?
// result 8.4

// query Reported Ki for CC(C)c1nc(-c2ncn3c2CN(C)C(=O)c2c(Cl)cccc2-3)no1 : what is it?
// result 6.4

----------
target: Gamma-aminobutyric acid receptor subunit alpha-1 (Homo sapiens)
Sequence (P14867 whole entry): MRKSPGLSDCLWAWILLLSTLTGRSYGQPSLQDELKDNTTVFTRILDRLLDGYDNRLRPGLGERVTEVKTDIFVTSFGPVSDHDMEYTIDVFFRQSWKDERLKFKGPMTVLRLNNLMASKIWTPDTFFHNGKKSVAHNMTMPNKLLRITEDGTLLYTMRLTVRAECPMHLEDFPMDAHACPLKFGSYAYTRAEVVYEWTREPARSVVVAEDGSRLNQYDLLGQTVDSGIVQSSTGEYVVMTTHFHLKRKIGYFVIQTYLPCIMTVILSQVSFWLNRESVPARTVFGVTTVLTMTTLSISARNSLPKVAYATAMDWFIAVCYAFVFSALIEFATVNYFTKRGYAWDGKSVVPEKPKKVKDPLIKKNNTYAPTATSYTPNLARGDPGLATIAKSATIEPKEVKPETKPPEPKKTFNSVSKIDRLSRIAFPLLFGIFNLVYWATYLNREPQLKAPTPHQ
pKi: −log10 of the molar value.
Threshold rule: pKi greater than or equal to 8 is y; below that, n.

// query pKi >= 8 for COC(=O)c1cc2c(cn1)[nH]c1ccccc12 ?
// result y

// query pKi >= 8 for CC(C)c1nc(-c2ncn3c2CN(C)C(=O)c2c(Cl)cccc2-3)no1 [FG 8205] ?
// result y

// query pKi >= 8 for CC(C)(C)OC(=O)c1ncn2c1C1CCCN1C(=O)c1c(Br)cccc1-2 (stereo not given) ?
// result y

// query pKi >= 8 for Cc1nnc2ccc(-c3cccc(C(F)(F)F)c3)nn12 ?
// result n
